# target.or.system: human LTBR on cells (human, UniProt P36941 31-435)
# method.description: cell-based or functional assay
quantity.name: NFκB luc, 0.91 ng/ml, w/o x linker (RLU)
Provide the reading as a plain figure in RLU.

[
  {
    "binder": "P1AF0064 (antibody, human IgG1, kappa, L234A L235A, V domains shown, human IgG1 PG LALA constant regions; V domains from rat immunization; also called LTBR (0064)) VH: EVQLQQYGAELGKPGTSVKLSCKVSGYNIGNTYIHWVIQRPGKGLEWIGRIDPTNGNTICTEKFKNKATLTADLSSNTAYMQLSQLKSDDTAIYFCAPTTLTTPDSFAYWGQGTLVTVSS VL: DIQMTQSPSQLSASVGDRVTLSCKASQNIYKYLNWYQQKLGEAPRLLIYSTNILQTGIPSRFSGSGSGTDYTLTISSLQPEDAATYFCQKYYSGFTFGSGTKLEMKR",
    "unit.label": "RLU",
    "NFκB luc, 0.91 ng/ml, w/o x linker": 17800
  }
]

INPUT: Record request: NFκB luc, 0.91 ng/ml, w/o x linker value, item P1AE9459 (antibody, human IgG1, kappa, L234A L235A, V domains shown, human IgG1 PG LALA; from transgenic rabbit immunization) VH: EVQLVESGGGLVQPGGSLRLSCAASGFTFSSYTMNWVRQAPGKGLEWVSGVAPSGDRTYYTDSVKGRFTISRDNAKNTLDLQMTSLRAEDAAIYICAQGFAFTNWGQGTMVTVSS VL: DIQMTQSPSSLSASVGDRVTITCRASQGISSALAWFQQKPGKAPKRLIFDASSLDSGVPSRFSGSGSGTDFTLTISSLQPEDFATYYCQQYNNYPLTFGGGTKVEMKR
OUTPUT: 17700
